Hello, the source for this data is patent US20240034729A9, in case you need it.

Below is a list of entries, each paired with its recorded pIC50 value.
Biological target: UniProtKB P56373
Sequence (P56373 whole entry): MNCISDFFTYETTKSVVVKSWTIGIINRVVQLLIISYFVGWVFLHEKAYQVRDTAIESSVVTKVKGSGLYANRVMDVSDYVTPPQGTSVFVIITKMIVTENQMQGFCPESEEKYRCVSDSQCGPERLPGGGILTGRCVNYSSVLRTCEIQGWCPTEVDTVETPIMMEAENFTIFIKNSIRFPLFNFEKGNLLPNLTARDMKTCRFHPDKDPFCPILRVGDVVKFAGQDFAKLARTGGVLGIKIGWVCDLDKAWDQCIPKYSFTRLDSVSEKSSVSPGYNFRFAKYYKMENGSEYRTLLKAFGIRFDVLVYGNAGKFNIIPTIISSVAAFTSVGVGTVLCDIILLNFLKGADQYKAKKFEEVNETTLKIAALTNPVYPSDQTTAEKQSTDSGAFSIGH
Experiment: FLIPR calcium assay, hP2X3 expressed in HEK293 cells
Assay type: cell-based
Conditions: read-out: P2X3 IC50
pIC50: −log10 of the molar value.

COC(=O)N1CCO[C@@H](Cc2c(-c3c(F)cc(-c4ccc[nH]4)cc3F)nc3cc(C)ccn23)C1 | > 8.00
CNC(=O)c1cc(F)c(-c2oc3nc(C)ccc3c2C[C@H]2CN(C(=O)OC)CCO2)c(F)c1 | > 8.00
COC(=O)N1CCO[C@@H](Cc2c(-c3c(F)cc(S(N)(=O)=O)cc3F)nc3cc(C)c(F)cn23)C1 | 8.46
CCOC(=O)c1cn(-c2cc(F)c(-c3nc4cc(C)ccn4c3C[C@H]3CN(C(=O)OC)CCO3)c(F)c2)cn1 | 6.70 to 7.30
COC(=O)N1CCO[C@@H](Cc2c(-c3c(F)cc(Nc4ccc(Cl)o4)cc3F)nc3cc(C)ccn23)C1 | 6.70 to 7.30

Query: I would be grateful if you could share the reported pIC50 for "CNS(=O)(=O)c1cc(F)c(-c2nc3cc(C)ccn3c2C[C@H]2CN(C(=O)OC)CCO2)c(F)c1" .
Reply: > 8.00
